From: BindingDB's records for patent WO2022115301

system-tested: Ceramide glucosyltransferase (Homo sapiens)
assay-text: UDP-Glo Glucosylceramide Synthase Biochemical Assay
Values of EC50 strictly less than 6 nM map to yes (1), and values of at least 6 nM map to no (0).

smiles-input | system-tested | class-name
COc1cc(C#N)cc(-c2cccc3c2C(=O)N([C@H](C2CC2)C(C)(C)O)C3)c1 | Ceramide glucosyltransferase (Homo sapiens) | no (0)
Cn1c(=O)n(C)c2cc(-c3cccc4c3C(=O)N([C@H](C3CC3)C(C)(C)O)C4)ccc21 | Ceramide glucosyltransferase (Homo sapiens) | yes (1)
CC(C)(O)[C@@H](C1CC1)N1Cc2cccc(-c3ccc(-c4nnco4)cc3)c2C1=O | Ceramide glucosyltransferase (Homo sapiens) | no (0)
CC(C)(O)[C@@H](C1CC1)N1Cc2cccc(-c3ccccc3OCC(F)(F)F)c2C1=O | Ceramide glucosyltransferase (Homo sapiens) | yes (1)
Cn1ncc2cc(-c3cccc4c3C(=O)N([C@H](C3CC3)C(C)(C)O)C4)ccc21 | Ceramide glucosyltransferase (Homo sapiens) | no (0)
Cn1cc(-c2ccc(-c3cccc4c3C(=O)N([C@H](C3CC3)C(C)(C)O)C4)cc2)cn1 | Ceramide glucosyltransferase (Homo sapiens) | no (0)
Cn1cc(-c2ccc(-c3cc(F)cc4c3C(=O)N([C@H](C3CC3)C(C)(C)O)C4)cc2)cn1 | Ceramide glucosyltransferase (Homo sapiens) | yes (1)

---

system-tested: Ceramide glucosyltransferase (Homo sapiens, UniProt Q16739)
Sequence (Q16739 whole entry): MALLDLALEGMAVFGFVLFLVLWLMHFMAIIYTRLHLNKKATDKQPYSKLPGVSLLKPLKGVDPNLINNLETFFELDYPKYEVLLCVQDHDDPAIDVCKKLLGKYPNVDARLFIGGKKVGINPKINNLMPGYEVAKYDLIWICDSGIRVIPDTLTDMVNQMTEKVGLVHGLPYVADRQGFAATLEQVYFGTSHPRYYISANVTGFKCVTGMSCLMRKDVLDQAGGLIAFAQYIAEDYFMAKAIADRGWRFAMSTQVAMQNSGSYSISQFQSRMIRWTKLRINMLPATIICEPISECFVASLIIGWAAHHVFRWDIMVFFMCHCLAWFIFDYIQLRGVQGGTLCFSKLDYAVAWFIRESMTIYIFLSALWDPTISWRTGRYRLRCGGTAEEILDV
assay-text: UDP-Glo Glucosylceramide Synthase Biochemical Assay
readout-kind: log10 EC50 (log10 of the value in nM)

smiles-input | log10 EC50
CC(C)(O)[C@@H](C1CC1)N1Cc2cccc(-c3cccc4c3OC(F)(F)O4)c2C1=O | 1.59
CC(C)(O)[C@@H](C1CC1)N1Cc2cccc(-c3ccc(-n4nccn4)cc3)c2C1=O | 2.76
CN1Cc2cc(-c3cc(F)cc4c3C(=O)N([C@H](C3CC3)C(C)(C)O)C4)ccc2C1=O | 0.96
Cc1nnc(-c2ccc(-c3cccc4c3C(=O)N([C@H](C3CC3)C(C)(C)O)C4)cc2F)o1 | 1.38
CC(C)(O)[C@@H](C1CC1)N1Cc2cccc(-c3cccc(OCC(F)(F)F)c3)c2C1=O | 1.68
COc1cc(Cl)cc(-c2cccc3c2C(=O)N([C@H](C2CC2)C(C)(C)O)C3)c1 | 0.45
Cc1n[nH]c2cc(F)c(-c3cccc4c3C(=O)N([C@H](C3CC3)C(C)(C)O)C4)cc12 | 0.69
